ASSAY_SUMMARY: in vitro
CONDITION_SUMMARY: human
READOUT: CC50

Examples with answers:
compound="C=C(CC[C@@H](C)[C@H]1CC[C@H]2C3=C(CC[C@]12C)[C@@]1(C)CC[C@H](O)CC1CC3=O)C(C)C (stereo partly drawn) [Compound 7, 3β-hydroxyergosta-8,24(28)-dien-7-one]" test_result="> 100 µM"
compound="COc1cc(=O)oc(C=CC=CC=CC(C)=CC2(C)OC(C)C(C)(O)C2O)c1C (single isomer, unassigned; (+)) [Compound 2, (+)-neocitreoviridin]" test_result="> 100 µM"

Ask: Give its CC50 value. Item: O=C1Nc2ccc(Cl)cc2[C@@](C#CC2CC2)(C(F)(F)F)O1 [Efavirenz, reference compound]
Reply: > 100 µM
